assay: Cytotoxicity against human Raji cells assessed as cell viability at 1000 molar ratio; type: cell-based; details: read-out: Activity
experimental readout: viability at 1000 molar ratio (%)

[[record]]
compound = "COC(=O)[C@H]1O[C@@H](O[C@H]2CC[C@@]3(C)[C@@H](CC[C@]4(C)[C@@H]3CC=C3[C@@H]5C[C@@](C)(C(=O)OC)C[C@@H](OC(C)=O)[C@]5(C)CC[C@]34C)[C@@]2(C)CO)[C@H](O[C@@H]2OC[C@@H](O)[C@H](O)[C@H]2O[C@@H]2O[C@@H](C)[C@H](O)[C@@H](O)[C@H]2O)[C@@H](O)[C@@H]1O [WISTARIASAPONIN G]"
comparison_sign = "="
reported_measurement = 0

[[record]]
compound = "CC1(C)CC(=O)[C@]2(C)CC[C@]3(C)C(=CC[C@@H]4[C@@]5(C)CC[C@H](O)[C@](C)(CO)[C@@H]5CC[C@]43C)[C@@H]2C1 [SOYASAPOGENOL E]"
comparison_sign = ">"
reported_measurement = 80

[[record]]
compound = "COC(=O)[C@H]1O[C@@H](O[C@H]2CC[C@@]3(C)[C@@H](CC[C@]4(C)[C@@H]3CC=C3[C@@H]5CC(C)(C)CC(=O)[C@]5(C)CC[C@]34C)[C@@]2(C)CO)[C@H](O[C@@H]2OC[C@@H](O)[C@H](O)[C@H]2O[C@@H]2O[C@@H](C)[C@H](O)[C@@H](O)[C@H]2O)[C@@H](O)[C@@H]1O [WISTARIASAPONIN D]"
comparison_sign = "="
reported_measurement = 10

[[record]]
compound = "COC(=O)[C@H]1O[C@@H](O[C@H]2CC[C@@]3(C)[C@@H](CC[C@]4(C)[C@@H]3CC=C3[C@@H]5CC(C)(C)CC(=O)[C@]5(C)CC[C@]34C)[C@@]2(C)CO)[C@H](O[C@@H]2O[C@H](CO)[C@H](O)[C@H](O)[C@H]2O[C@@H]2O[C@@H](C)[C@H](O)[C@@H](O)[C@H]2O)[C@@H](O)[C@@H]1O [DEHYDROSOYASAPONIN I]"
comparison_sign = "="
reported_measurement = 60

